Attribution: the RNAGym collection of RNA variant scans (doi:10.7554/elife.80360)

B1: CPEB3 Ribozyme (parent)
chain: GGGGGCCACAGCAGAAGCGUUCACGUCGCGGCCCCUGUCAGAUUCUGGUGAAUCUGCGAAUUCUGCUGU

Variants of: B1
experimental-details: self-cleavage, relative activity (ratio to wild type); higher = more cleavage; co-transcriptional
recorded-endpoint: self-cleavage
Just the number.

INSERT INTO measurements (residue_codes, recorded_value) VALUES
  ('GGGGGCCACAGCAGAAGCGUUCACGUCGCGGUCCCUGGCAGAUUCUGGUGAAUCUGCGAAUUCUGCUGU [C32U U38G]', 0.294),
  ('GGAGGCCACAGCAGAAGCGUUCACGUCGCGGCCCCUGACAGAUUCUGGUGAAUCUGCGAAUUCUGCUGU [G3A U38A]', 0.514),
  ('GGGGGCCACAGCCGCAGCGUUCACGUCGCGGCCCCUGUCAGAUUCUGGUGAAUCUGCGAAUUCUGCUGU [A13C A15C]', 0.264),
  ('GGGGGCCCCAGCAGAAGCGUUCACGUCGCGGCCCCUGUCAGAGUCUGGUGAAUCUGCGAAUUCUGCUGU [A8C U43G]', 0.938),
  ('GGGGGCCACAGCAGAAGCGUUCAAGUCGCGGCCCCUGUCAGAUUCUGGUGAAUCUGCGAAUUCUUCUGU [C24A G65U]', 0.303),
  ('GGGGGCCACAGCAGAACCGUUCACGUCGCGGCCCUUGUCAGAUUCUGGUGAAUCUGCGAAUUCUGCUGU [G17C C35U]', 0.15),
  ('GGGGGCCACAGCAGAAGCGUUCACGUCGCGGCCCCUGUCAGAUGCUGGUAAAUCUGCGAAUUCUGCUGU [U44G G50A]', 1),
  ('GGGGGCCACAGCAGAAGCGUUCACGUCGCGGCCCCUCUCAGAUUCUGGUGAAUCUGCGUAUUCUGCUGU [G37C A59U]', 0.242),
  ('GGGGGCCACAGCAGAAGCGGUCACGUCGCCGCCCCUGUCAGAUUCUGGUGAAUCUGCGAAUUCUGCUGU [U20G G30C]', 0.212),
  ('GCGGGCCACAGCAGAAGCGUUCACGUCGCGGCCCCUGUCAGAUUCUGGUGAAUCUGCGAAUUUUGCUGU [G2C C63U]', 0.0396);

The variant listed as GGGGGCAACAGCAGAAGCGUUCACGACGCGGCCCCUGUCAGAUUCUGGUGAAUCUGCGAAUUCUGCUGU [C7A U26A] shows self-cleavage equal to 0.176

The variant listed as GGGGGCCACAGCAGAUGCGUUCACGUCGCGGCCCCUGUCAGAUUCUGGUAAAUCUGCGAAUUCUGCUGU [A16U G50A] shows self-cleavage equal to 0.884

The variant listed as GGGGGCCACAGCAGAAGCGUUCACGUCCCGGCCCCUGUUAGAUUCUGGUGAAUCUGCGAAUUCUGCUGU [G28C C39U] shows self-cleavage equal to 0.207

The variant listed as GGGGGCCACAGCAGAAGCGUUCACGUCGCGGCCCAUGUCAGAUUUUGGUGAAUCUGCGAAUUCUGCUGU [C35A C45U] shows self-cleavage equal to 0.261

The variant listed as GGGGGCCACAGCAGAACCGUUCACGUCGCGGGCCCUGUCAGAUUCUGGUGAAUCUGCGAAUUCUGCUGU [G17C C32G] shows self-cleavage equal to 0.0951

The variant listed as GGAGGCCACAGCAGAAGCGUUCACGUAGCGGCCCCUGUCAGAUUCUGGUGAAUCUGCGAAUUCUGCUGU [G3A C27A] shows self-cleavage equal to 0.153

The variant listed as GGGGGCCACAGCAGAAGCGUUCACGUCGCGGCCCCUGUCAGAUUCUGGUGACUCUGCGAGUUCUGCUGU [A52C A60G] shows self-cleavage equal to 0.839

The variant listed as GGGGGCCACAGCAGAAGCGUUCACGUCGCGGCCCCUGUCGGAUUCUGGUGAAUCUGCGAAUACUGCUGU [A40G U62A] shows self-cleavage equal to 0.837

The variant listed as GGUGGCCACAGCAGAAGCGUUCACGUCGCGGCCCCUGUCAGAUUCUGGUGAAGCUGCGAAUUCUGCUGU [G3U U53G] shows self-cleavage equal to 0.0759

The variant listed as GGGGGCCACUGCAGAAGCGUUCACGUCGCGGCCCCUGUCAGAUUCUGGUGAAUCUGCGAAUACUGCUGU [A10U U62A] shows self-cleavage equal to 0.882

The variant listed as AGGGGCCACAGCAGAAGCGUUCACGUCGCGGCCCGUGUCAGAUUCUGGUGAAUCUGCGAAUUCUGCUGU [G1A C35G] shows self-cleavage equal to 0.053

The variant listed as GGGGGCCACAGCAGAAGCGUUCACGUCGCGGCCCCUGUCAGACUCUGGUGAAUCUGCGAACUCUGCUGU [U43C U61C] shows self-cleavage equal to 0.511

The variant listed as GGGGGCCACAGCAGAAGAGUUCCCGUCGCGGCCCCUGUCAGAUUCUGGUGAAUCUGCGAAUUCUGCUGU [C18A A23C] shows self-cleavage equal to 0.128

The variant listed as GGGGGCCACAGCAGAAGCGUACACGUCGCGGCCCCUGUCAGAUUCUGGUGAAUCGGCGAAUUCUGCUGU [U21A U55G] shows self-cleavage equal to 0.811

The variant listed as GGGGCCCACAGCAGAAGCGUUCACGUCGCGGCCCCUGUCAGAUUCUGGUGAAUAUGCGAAUUCUGCUGU [G5C C54A] shows self-cleavage equal to 0.123

The variant listed as GGGGGCCACAGCAGAAGCCUUCACGUCGCGGCCCCUGUCAGAUUCUGGUGAAUCUGCGAGUUCUGCUGU [G19C A60G] shows self-cleavage equal to 0.119

The variant listed as GGGGGCCACAGCAGAAGCGUUCACGUCGCGGCCCCUUUCAGAUUCUGGUGAAUCUGCGCAUUCUGCUGU [G37U A59C] shows self-cleavage equal to 0.218

The variant listed as GGGGGCCACAGCAGAAGCGUUCACGUCGCGGCCCCUGUCAGGUUCUGGUGAAUCGGCGAAUUCUGCUGU [A42G U55G] shows self-cleavage equal to 0.335
